Assay: chemical genetic growth profiling, strain panel (AID 1159580);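 further: tested at 20 µM; growth read once vehicle control cultures reached saturation at 30 °C; 1 = growth at the plate median or of vehicle wells; lower values mean less growth of the strain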
Conditions: S. cerevisiae deletion strains, growth OD, locus YLR221C, strain rsa3, stronger effect = lower value
Out of some 5,500 compounds screened, about 2,000 (36%) were called active. About 18% were inconclusive and are not listed. Some of the results follow.
Decide using normalized growth alone. Strictly below 1: T. Equal to or above 1: F.

Here's what some known entries look like.
1. COc1ccc2c(=O)c(CC(=O)O)coc2c1 :: T
2. Cc1cc(C)nc(NS(=O)(=O)c2ccc(N)cc2)n1 :: T
3. COc1c2c(cc3occ(-c4ccc5c(c4)OCO5)c(=O)c13)OC(C)(C)C=C2 :: T
4. O=c1ccc2cc(O[C@@H]3O[C@H](CO)[C@@H](O)[C@H](O)[C@H]3O)c(O)cc2o1 :: F
5. COc1cc2ccc(=O)oc2c2ccoc12 :: T
6. COc1ccc2ccc(=O)oc2c1CC=C(C)C :: T
7. COc1cc2ccc(=O)oc2cc1O :: F
8. CC(C)=CCOc1cc2oc(=O)ccc2cc1O :: T

# input Quick check: does O=C1c2ccccc2C(=O)c2c1ccc(O)c2O have normalized growth under 1?
# output T

# input Here's an entry: CN(C)c1nc(N(C)C)nc(N(C)C)n1 . Is its normalized growth below 1?
# output T

# input Strictly below 1 in normalized growth? CC(C)CCCC(C)[C@H]1CCC2C3CC[C@H]4CC(=O)CC[C@]4(C)C3CC[C@@]21C (some centres not stated)
# output T

# input Item Cc1cc(O)c2c(c1O)C(=O)c1c(O)cc(C)c(O)c1C2=O : normalized growth beneath 1, strictly?
# output T

###

Test: chemical genetic growth profiling, strain panel (AID 1159580);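 further: tested at 20 µM; growth read once vehicle control cultures reached saturation at 30 °C; 1 = growth at the plate median or of vehicle wells; lower values mean less growth of the strain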
Conditions: S. cerevisiae deletion strains, growth OD, locus YJL095W, strain BCK1, stronger effect = lower value
Among all 5,500 compounds or so, about 2,000 (36%) were called active. Another 18% or so got no clear call; they are omitted. The list shows a part of the results.
Measured normalized growth, listed per entry for reference.
// no unit string in output, number only

Use the examples below as a reference point.
1) CCCCCN=C(N)N/N=C\c1c[nH]c2ccc(OC)cc12 :: 0.987
2) CSc1nc(Sc2n[nH]c(-c3ccccc3)n2)cc(Sc2n[nH]c(-c3ccccc3)n2)n1 :: 0.875
3) Cc1c(NCN2C(=O)CCC2=O)cc2c(c1[N+](=O)[O-])C(C)(C)CC2(C)C :: 0.839
4) O=C(c1ccc(Cl)cc1)N1CCN(c2ccc(C(F)(F)F)cn2)CC1 :: 0.892

# input Which measured normalized growth value corresponds to O=S(=O)(Nc1cc(-c2cccs2)nn1-c1ccc(I)cc1)c1cccc(F)c1 ?
# output 0.903

# input If you can, please state the reported normalized growth value of O=C(NCc1ccc(F)c(Cl)c1)Nc1csc([N+](=O)[O-])c1 .
# output 0.963

# input # query: normalized growth of entry N/C(=N/OC(=O)c1ccccc1Cl)c1cccc(CS(=O)(=O)c2ccc(Cl)cc2)c1
# output 0.973

# input Query (compound): CC(C)N=c1cc2n(-c3ccc(Cl)cc3)c3ccccc3nc-2cc1Nc1ccc(Cl)cc1 ; field requested: normalized growth
# output 0.869

# input Recorded normalized growth for C(=NC(N=Cc1ccccc1)c1ccccc1)c1ccccc1 (centres undefined) , please?
# output 0.918

# input What does the data say about its normalized growth? Entry: CC(=O)O[C@@H]1CC2C(C)(C)C(=O)[C@@H]3O[C@@H]3[C@]2(C)C2CC[C@]3(C)C(=CC(=O)O[C@H]3c3ccoc3)[C@@]21C (some centres undefined)
# output 1.04

# input Bench note: what normalized growth did O=S(=O)(Nc1ccc(-n2nc(C(F)(F)F)cc2-c2cccs2)cc1)c1ccc(F)cc1 show?
# output 1.04

# input What measured normalized growth goes with O=C(N/N=C\c1cc(Cl)cc(Cl)c1O)c1ccccc1Oc1ccccc1 ?
# output 0.871

# input Give the measured normalized growth of FC(F)(F)c1ccc(NC(=S)Nc2ccc(C(F)(F)F)cc2Cl)c(Cl)c1 .
# output 0.919

# input Bench note: what normalized growth did COc1ccc(-c2cc(NS(=O)(=O)c3cccc(F)c3)n(-c3ccc(Cl)c(Cl)c3)n2)cc1 show?
# output 0.888

# input compound: CC1CCc2c(sc3ncnc(Sc4ccccc4)c23)C1 (centres undefined) ; wanted: its normalized growth
# output 0.996

# input State the recorded normalized growth for this entry: Cc1c(C(=O)NCCNc2ccc(C(F)(F)F)cc2[N+](=O)[O-])cnn1-c1ccc(F)cc1
# output 0.978

Values from PubChem BioAssay AID1159580
